- assay: Single-dose pharmacokinetics of pantoprazole delayed-release tablet, study 2
- Assay type: in vivo, human
- condition info: human, plasma, po, 20 mg
measurement kind: AUC (ng·h/mL)
Give just the numeric value; ng·h/mL need not be written.

Please report the measured AUC for COc1ccnc(C[S+]([O-])c2nc3ccc(OC(F)F)cc3[nH]2)c1OC (stereo not shown) 1300

###

- assay: Single-dose pharmacokinetics of pantoprazole delayed-release tablet, study 2
- Assay type: in vivo, human
- condition info: human, plasma, po, 20 mg
measurement kind: CL/F (mL/min/kg)
Give just the numeric value; mL/min/kg need not be written.

Please report the measured CL/F for COc1ccnc(C[S+]([O-])c2nc3ccc(OC(F)F)cc3[nH]2)c1OC (stereo not shown) 4.67
